- assayNotes: rectal (body) temperature of mice measured with medicinal electrothermometer TREM-1
- Format: in vivo, mice of the BALB line
- statedConditions: p.o., 60 min; mg/kg: cpd 4 437.0, cpd 5 328.0, cpd 6 407.0, cpd 8 435.0
readoutLabel: body temperature (°C)
Value expressed in °C; do not type the unit.

Solved entries (count: 3):
Br.c1ccc(C2=NN=C(N3CCSCC3)SC2)cc1 :: 26.0
Br.Brc1cccc(C2=NN=C(N3CCSCC3)SC2)c1 :: 35.0
Br.Brc1cccc(C2=NN=C(N3CCOCC3)SC2)c1 :: 33.8

Query block: Query (molecule): CS(=O)(=O)O.c1ccc(C2=NN=C(N3CCSCC3)SC2)cc1 ; field requested: body temperature
Result block: 33.4

----------
- assayNotes: rectal (body) temperature of mice measured with medicinal electrothermometer TREM-1
- Assay type: in vivo, mice of the BALB line
- statedConditions: i.p., 180 min; mg/kg: cpd 1 190.0, cpd 2 178.0, cpd 5 190.0, cpd 6 160.0
Structures can show the parent of a compound that is named as a salt.
readoutLabel: body temperature (°C)
Value expressed in °C; do not type the unit.

CS(=O)(=O)O.c1ccc(C2=NN=C(N3CCSCC3)SC2)cc1 :: 27.4

Query block: Query (compound): CS(=O)(=O)O.c1ccc(C2=NN=C(N3CCOCC3)SC2)cc1 ; field requested: body temperature
Result block: 31.0

Query block: Query (compound): Br.c1ccc(C2=NN=C(N3CCSCC3)SC2)cc1 ; field requested: body temperature
Result block: 23.3

Query block: Query (compound): c1ccc(C2=NN=C(N3CCOCC3)SC2)cc1 [Compound 1, hydrobromide] ; field requested: body temperature
Result block: 20.9

----------
- assayNotes: rectal (body) temperature of mice measured with medicinal electrothermometer TREM-1
- Type: in vivo, mice of the BALB line
- statedConditions: p.o., 0 min; mg/kg: cpd 4 437.0, cpd 5 328.0, cpd 6 407.0, cpd 8 435.0
// body temperature lookup, one value per entry
Respond with the figure and its unit, in that order.

Solved entries (count: 3):
Br.Brc1cccc(C2=NN=C(N3CCSCC3)SC2)c1 :: 38.1 °C
CS(=O)(=O)O.c1ccc(C2=NN=C(N3CCSCC3)SC2)cc1 :: 37.7 °C
Br.c1ccc(C2=NN=C(N3CCSCC3)SC2)cc1 :: 38.0 °C

Below: the item to evaluate.
Query block: Query (compound): Br.Brc1cccc(C2=NN=C(N3CCOCC3)SC2)c1 ; field requested: body temperature
Result block: 38.0 °C

----------
// body temperature lookup, one value per entry
- assayNotes: rectal (body) temperature of mice measured with medicinal electrothermometer TREM-1
- Type: in vivo, mice of the BALB line
- statedConditions: i.p., 30 min; mg/kg: cpd 1 190.0, cpd 2 178.0, cpd 5 190.0, cpd 6 160.0
Where a name gives a salt, the structure may show the parent alone.
Value expressed in °C; do not type the unit.

Solved entries (count: 3):
Br.c1ccc(C2=NN=C(N3CCSCC3)SC2)cc1 :: 28.0
c1ccc(C2=NN=C(N3CCOCC3)SC2)cc1 [Compound 1, hydrobromide] :: 26.9
CS(=O)(=O)O.c1ccc(C2=NN=C(N3CCSCC3)SC2)cc1 :: 30.6

Below: the item to evaluate.
Query block: Query (compound): CS(=O)(=O)O.c1ccc(C2=NN=C(N3CCOCC3)SC2)cc1 ; field requested: body temperature
Result block: 30.1
